Give measured residual percentage in human plasma for each item. Keep answers brief.
- assay_summary: Stability in human plasma
- Type: in vitro ADME
- assay_conditions: after 4 hours, 37° C.
Answers are plain numbers, in %.

compound: O=C(NO)c1cc(F)c(Cn2nnc(-c3ncccn3)n2)c(F)c1 [comp. 7]
residual percentage in human plasma [%]: 93

Batch request: residual percentage in human plasma for each of the following compounds.
1. O=C(NO)c1cc(F)c(Cn2nnnc2-c2ccccn2)c(F)c1 [comp. 13]
2. O=C(NO)c1ccc(Cc2noc(-c3ccnc(N4CCOCC4)c3)n2)cc1 [compound 193]

Result string:
94
100

====

- measured_target: recombinant human HDAC6 (Homo sapiens)
- Sequence (Q9UBN7 1-1215): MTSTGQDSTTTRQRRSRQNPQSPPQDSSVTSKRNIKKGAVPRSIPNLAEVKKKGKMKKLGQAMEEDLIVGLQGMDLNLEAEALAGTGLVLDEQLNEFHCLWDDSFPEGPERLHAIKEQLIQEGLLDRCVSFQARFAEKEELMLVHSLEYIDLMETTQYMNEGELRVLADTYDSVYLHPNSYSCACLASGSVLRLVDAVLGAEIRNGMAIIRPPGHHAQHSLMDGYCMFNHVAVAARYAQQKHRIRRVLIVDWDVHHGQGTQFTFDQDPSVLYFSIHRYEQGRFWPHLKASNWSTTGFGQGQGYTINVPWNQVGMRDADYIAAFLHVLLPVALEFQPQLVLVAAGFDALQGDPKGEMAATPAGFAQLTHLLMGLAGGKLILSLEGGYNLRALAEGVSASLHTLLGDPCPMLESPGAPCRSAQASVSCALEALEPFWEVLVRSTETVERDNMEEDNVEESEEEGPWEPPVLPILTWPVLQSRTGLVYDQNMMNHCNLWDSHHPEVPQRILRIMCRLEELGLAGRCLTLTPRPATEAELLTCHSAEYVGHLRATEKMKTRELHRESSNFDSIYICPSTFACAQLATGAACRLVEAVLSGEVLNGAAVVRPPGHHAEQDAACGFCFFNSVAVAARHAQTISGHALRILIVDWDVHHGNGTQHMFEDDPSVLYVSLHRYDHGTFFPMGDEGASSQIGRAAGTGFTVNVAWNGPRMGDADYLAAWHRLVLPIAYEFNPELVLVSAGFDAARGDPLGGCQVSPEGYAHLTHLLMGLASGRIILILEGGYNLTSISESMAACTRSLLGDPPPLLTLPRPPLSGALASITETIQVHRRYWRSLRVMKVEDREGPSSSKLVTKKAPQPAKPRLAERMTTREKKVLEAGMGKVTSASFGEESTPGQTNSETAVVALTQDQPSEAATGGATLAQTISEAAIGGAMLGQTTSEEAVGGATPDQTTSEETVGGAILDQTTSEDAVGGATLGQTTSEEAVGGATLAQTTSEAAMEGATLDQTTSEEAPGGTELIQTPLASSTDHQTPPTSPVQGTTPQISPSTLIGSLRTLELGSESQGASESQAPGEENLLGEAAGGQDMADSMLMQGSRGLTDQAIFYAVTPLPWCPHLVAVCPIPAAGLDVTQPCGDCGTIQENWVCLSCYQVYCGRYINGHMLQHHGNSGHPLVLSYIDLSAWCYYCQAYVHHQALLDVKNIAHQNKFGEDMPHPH
- assay_summary: Enzymatic screening on recombinant human HDAC6
- Type: biochemical
- assay_conditions: Table 2; read-out: HDAC6 IC50
measured_quantity: pIC50
Answers are plain numbers, as −log10 of the molar value.

As a guide, the following entries are already answered.
molecule: O=C(NO)c1ccc(Cn2nnc(-c3ccccc3)n2)cc1
pIC50: 8.52
//
molecule: COc1ccccc1-n1nc(-c2cccs2)nc1Cc1ccc(C(=O)NO)cc1
pIC50: 6.48
//
molecule: O=C(NO)c1cc(F)c(Cn2nnc(-c3cccs3)n2)c(F)c1
pIC50: 8.22
//
molecule: Cn1c(Sc2ccc(C(=O)NO)cc2)nnc1C1CCN(C(=O)OC(C)(C)C)CC1
pIC50: 7.57
//
molecule: O=C(NO)c1cc(F)c(Cn2nnc(-c3ccc(S(F)(F)(F)(F)F)cc3)n2)c(F)c1
pIC50: 6.91

I'm hoping you can list pIC50 for every compound here, please.
1. COc1cccc(-c2nnc(Sc3ccc(C(=O)NO)cc3)n2C)c1
2. Cn1c(Sc2c(F)cc(C(=O)NO)cc2F)nnc1-c1cccc(CN2CCOCC2)c1
3. COC(=O)c1ccc(-c2nnnn2Cc2ccc(C(=O)NO)cc2)nc1
4. O=C(NO)c1ccc(Sc2nc(C3CC3)n(-c3ccccc3)n2)cc1

Result string:
1. 7.70
2. 7.80
3. 7.57
4. 6.79

====

- measured_target: HDAC9 (Homo sapiens, UniProt Q9UKV0)
- Sequence (Q9UKV0 1-1066 isoform Q9UKV0-5): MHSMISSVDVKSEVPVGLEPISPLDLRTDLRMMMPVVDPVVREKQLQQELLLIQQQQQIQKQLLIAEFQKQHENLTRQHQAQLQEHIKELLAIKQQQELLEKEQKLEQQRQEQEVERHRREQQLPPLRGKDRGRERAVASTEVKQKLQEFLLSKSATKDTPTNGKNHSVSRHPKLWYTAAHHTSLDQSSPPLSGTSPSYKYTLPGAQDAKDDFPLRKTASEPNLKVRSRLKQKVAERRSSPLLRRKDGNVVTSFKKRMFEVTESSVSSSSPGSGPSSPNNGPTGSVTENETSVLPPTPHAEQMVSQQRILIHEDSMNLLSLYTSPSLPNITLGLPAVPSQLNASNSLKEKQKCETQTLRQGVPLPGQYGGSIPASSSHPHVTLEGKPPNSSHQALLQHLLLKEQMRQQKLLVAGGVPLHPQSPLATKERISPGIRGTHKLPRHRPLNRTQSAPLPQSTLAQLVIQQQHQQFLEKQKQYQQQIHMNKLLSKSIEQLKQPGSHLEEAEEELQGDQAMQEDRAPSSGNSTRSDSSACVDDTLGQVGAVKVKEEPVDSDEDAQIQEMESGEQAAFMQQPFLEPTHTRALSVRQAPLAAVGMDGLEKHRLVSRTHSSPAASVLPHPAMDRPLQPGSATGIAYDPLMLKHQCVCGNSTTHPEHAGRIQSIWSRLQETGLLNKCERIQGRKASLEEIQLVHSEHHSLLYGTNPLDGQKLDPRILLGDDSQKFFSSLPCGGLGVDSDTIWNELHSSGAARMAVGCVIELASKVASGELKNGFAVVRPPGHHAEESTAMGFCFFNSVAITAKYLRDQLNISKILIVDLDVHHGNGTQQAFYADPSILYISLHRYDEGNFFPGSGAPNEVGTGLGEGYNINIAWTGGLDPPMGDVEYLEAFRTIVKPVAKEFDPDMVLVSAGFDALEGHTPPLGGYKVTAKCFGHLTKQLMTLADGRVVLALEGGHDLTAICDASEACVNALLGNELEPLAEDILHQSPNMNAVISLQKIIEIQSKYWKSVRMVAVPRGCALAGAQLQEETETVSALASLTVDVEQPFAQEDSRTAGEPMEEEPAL
Rule: IC50 below 800 nM gives 1.0, anything at or above gives 0.0.

These recorded examples may help you get a feel for the data.
compound: Cn1c(Sc2ccc(C(=O)NO)cc2)nnc1-c1cccs1 [comp. 10]
class_label: 0.0
//
compound: COc1ccc(C(=O)N[C@@H](Cc2cscn2)c2nc(Cc3ccc(C(=O)NO)cc3)no2)cc1OC [comp. 1]
class_label: 0.0
//
compound: O=C(NO)c1ccc(Cn2nnc(-c3ccccc3F)n2)cc1 [comp. 33]
class_label: 0.0
//
compound: O=C(NO)c1cc(F)c(Cn2nnc(-c3ccco3)n2)c(F)c1 [comp. 19]
class_label: 1.0
//
compound: O=C(NO)c1cc(F)c(Cn2nnnc2-c2cccs2)c(F)c1 [comp. 15]
class_label: 1.0

Query string: Hello, I'm reviewing records and need to know if IC50 of O=C(NO)c1cc(F)c(Cn2nnc(-c3ccccn3)n2)c(F)c1 [comp. 6] is below 800 nM. Could you check?
Result string: 1.0

Query string: // same read-out, input: CN(C)S(=O)(=O)c1cccc(-c2nnn(Cc3ccc(C(=O)NO)cc3)n2)c1 [comp. 59]
Result string: 0.0

Query string: Field entry: O=C(NO)c1cc(F)c(Cn2nnnc2-c2ccccn2)c(F)c1 [comp. 13]
Result string: 1.0

Query string: Input Cn1c(Sc2c(F)cc(C(=O)NO)cc2F)nnc1-c1cccs1 [comp. 17]
Result string: 1.0

Query string: Another: Cn1c(Sc2c(F)cc(C(=O)NO)cc2F)nnc1-c1cccc2ccccc12 [comp. 2]
Result string: 1.0

====

Provide the reported pIC50 of each item.
Protein target, amino acids: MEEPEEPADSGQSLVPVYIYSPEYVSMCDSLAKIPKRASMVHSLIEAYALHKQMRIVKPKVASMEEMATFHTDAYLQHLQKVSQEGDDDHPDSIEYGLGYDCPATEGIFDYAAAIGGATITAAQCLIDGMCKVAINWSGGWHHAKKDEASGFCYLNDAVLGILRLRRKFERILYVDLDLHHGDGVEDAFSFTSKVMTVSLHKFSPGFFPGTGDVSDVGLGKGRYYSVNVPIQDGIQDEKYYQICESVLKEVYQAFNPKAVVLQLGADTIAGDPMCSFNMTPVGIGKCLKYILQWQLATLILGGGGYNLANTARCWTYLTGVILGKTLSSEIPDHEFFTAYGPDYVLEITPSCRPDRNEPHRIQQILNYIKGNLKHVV
Numbers only, as −log10 of the molar value.

Please review the following examples before continuing.
molecule: Cn1c(Sc2ccc(C(=O)NO)cc2)nnc1-c1cccs1
pIC50: 6.30
--
molecule: O=C(NO)c1cc(F)c(Cn2nnnc2-c2cccs2)c(F)c1
pIC50: 6.00
--
molecule: Nn1c(Sc2ccc(C(=O)NO)cc2)nnc1-c1ccc(OC(F)F)cc1
pIC50: 6.57

Hi there! I need pIC50 for each item below, if you can.
1. Cn1c(Sc2c(F)cc(C(=O)NO)cc2F)nnc1-c1cccs1
2. O=C(NO)c1cc(F)c(Cn2nnc(-c3ccccn3)n2)c(F)c1

Result string:
1: 6.71; 2: 5.99

====

Hi there, I'd appreciate the recorded pIC50 for every entry that follows.
- measured_target: recombinant human HDAC6 (Homo sapiens)
- Sequence (Q9UBN7 1-1215): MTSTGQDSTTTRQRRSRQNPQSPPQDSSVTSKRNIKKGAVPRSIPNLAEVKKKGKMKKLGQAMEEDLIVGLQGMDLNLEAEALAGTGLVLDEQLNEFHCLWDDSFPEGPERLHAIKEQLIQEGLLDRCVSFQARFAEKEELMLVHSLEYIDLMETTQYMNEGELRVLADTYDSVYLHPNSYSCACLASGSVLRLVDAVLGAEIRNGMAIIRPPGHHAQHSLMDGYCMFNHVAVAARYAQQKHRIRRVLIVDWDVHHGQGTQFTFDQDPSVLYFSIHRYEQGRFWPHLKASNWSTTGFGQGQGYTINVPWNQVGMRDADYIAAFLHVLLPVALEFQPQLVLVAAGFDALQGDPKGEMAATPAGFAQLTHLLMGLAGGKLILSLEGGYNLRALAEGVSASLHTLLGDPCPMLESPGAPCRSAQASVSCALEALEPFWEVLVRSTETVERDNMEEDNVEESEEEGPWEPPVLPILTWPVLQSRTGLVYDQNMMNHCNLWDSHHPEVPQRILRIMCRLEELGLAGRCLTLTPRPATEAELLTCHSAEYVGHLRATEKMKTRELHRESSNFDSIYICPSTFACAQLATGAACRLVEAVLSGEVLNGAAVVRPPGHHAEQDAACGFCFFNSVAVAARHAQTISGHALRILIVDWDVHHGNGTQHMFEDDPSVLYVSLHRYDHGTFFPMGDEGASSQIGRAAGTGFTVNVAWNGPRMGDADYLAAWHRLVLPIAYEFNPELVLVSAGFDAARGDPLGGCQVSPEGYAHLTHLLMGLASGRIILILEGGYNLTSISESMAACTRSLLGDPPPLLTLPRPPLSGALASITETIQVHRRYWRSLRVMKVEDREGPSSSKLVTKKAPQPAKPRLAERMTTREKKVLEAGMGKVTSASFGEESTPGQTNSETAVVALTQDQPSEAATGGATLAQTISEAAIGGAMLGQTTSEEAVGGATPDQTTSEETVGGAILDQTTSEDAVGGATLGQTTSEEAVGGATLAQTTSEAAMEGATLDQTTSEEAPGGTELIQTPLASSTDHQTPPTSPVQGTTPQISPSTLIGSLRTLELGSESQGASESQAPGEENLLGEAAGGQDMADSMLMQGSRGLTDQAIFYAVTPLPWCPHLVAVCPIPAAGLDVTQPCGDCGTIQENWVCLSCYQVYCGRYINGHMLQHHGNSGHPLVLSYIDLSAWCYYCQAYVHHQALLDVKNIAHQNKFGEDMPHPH
- assay_summary: Enzymatic screening on recombinant human HDAC6
- Format: biochemical
- assay_conditions: Table 2; read-out: HDAC6 IC50
Answers are plain numbers, as −log10 of the molar value.

Sample records with pIC50:
molecule: Cn1c(Sc2c(F)cc(C(=O)NO)cc2F)nnc1-c1cccc(CN2CCCCCC2)c1
measured_target: recombinant human HDAC6 (Homo sapiens)
pIC50: 8.22

molecule: O=C(NO)c1ccc(Cn2nnc(-c3ccccc3F)n2)cc1 [comp. 46]
measured_target: recombinant human HDAC6 (Homo sapiens)
pIC50: 8.30

molecule: O=C(NO)c1ccc(Cn2nnnc2-c2ccc3ccccc3n2)cc1
measured_target: recombinant human HDAC6 (Homo sapiens)
pIC50: 8.52

molecule: O=C(NO)c1cc(F)c(Cn2nnc(-c3ccc4ccccc4n3)n2)c(F)c1
measured_target: recombinant human HDAC6 (Homo sapiens)
pIC50: 8.00

molecule: O=C(NO)c1ccc(Cn2nnc(-c3nccc4ccccc34)n2)cc1
measured_target: recombinant human HDAC6 (Homo sapiens)
pIC50: 7.70

molecule: COc1ccc(-c2nnc(Cc3ccc(C(=O)NO)cc3)o2)cc1OC
measured_target: recombinant human HDAC6 (Homo sapiens)
pIC50: 8.10

molecule: COc1ccc(-c2nc(Cc3ccc(C(=O)NO)cc3)no2)cc1OC
measured_target: recombinant human HDAC6 (Homo sapiens)
pIC50: 8.15

molecule: O=C(NO)c1cc(F)c(Cn2nnnc2-c2ncccn2)c(F)c1
measured_target: recombinant human HDAC6 (Homo sapiens)
pIC50: 7.77

Now consider a different molecule.
Query string: Give the measured pIC50 of `O=C(NO)c1cc(F)c(Cn2nnc(-c3cccc(S(F)(F)(F)(F)F)c3)n2)c(F)c1` .
Result string: 6.97
